experiment: chemical genetic growth profiling, strain panel (AID 1159580);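 further: tested at 20 µM; growth read once vehicle control cultures reached saturation at 30 °C; 1 = growth at the plate median or of vehicle wells; lower values mean less growth of the strain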; conditions: S. cerevisiae deletion strains, growth OD, locus YOR061W, strain CKA2, active compounds read low
The whole screen tested about 5,500 compounds, of which about 2,000 (36%) were called active. About 18% were inconclusive and are not listed. This is one part of the list.
parameter: normalized growth
Form: value (number only, do not type unit).

Take a look at these entries with their results.
>  <compound>
CC(C(=O)O)c1ccc(C(=O)c2cccs2)cc1 (stereo unspecified)

>  <normalized growth>
1.01

$$$$
>  <compound>
C=C1C(C)C2C(Cc3ccccc3)NC(=O)C23OC(=O)/C=C/C(=O)CCCC(C)C/C=C/C3C1O (stereo unspecified)

>  <normalized growth>
0.996

$$$$
>  <compound>
OC(=Cc1nc2ccccc2nc1C=C(O)c1ccc(Cl)cc1)c1ccc(Cl)cc1

>  <normalized growth>
0.769

$$$$

Look at this compound and give its reported normalized growth. O=C(Nc1ccc(OC(F)(F)F)cc1)N1CCN(c2nc(-c3ccccc3)ns2)CC1 0.856

Also Cc1onc(-c2c(F)cccc2Cl)c1C(=O)NNc1cc(Cl)cc(Cl)c1 ? 0.908

Also CCCCN1CCCCC1C(=O)Nc1c(C)cccc1C (stereo unspecified) ? 1.02

Also C=C1CCC(=O)C(C)CCC2C1CC2(C)C (stereo unspecified) ? 1.02

###

assay: chemical genetic growth profiling, strain panel (AID 1159580);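 further: tested at 20 µM; growth read once vehicle control cultures reached saturation at 30 °C; 1 = growth at the plate median or of vehicle wells; lower values mean less growth of the strain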; conditions: S. cerevisiae deletion strains, growth OD, locus YLR039C, strain RIC1
The campaign covered roughly 5,500 compounds. About 2,000 (36%) were called active. Not shown: some 18% with an inconclusive outcome. Rule as the data show it: active = normalized growth mostly below about 0.91 (no sharp cut-off); inconclusive = no clear call, values can overlap the other calls; inactive = mostly above about 0.92. Some of the results follow.
Please answer using one outcome listed in YES = active, NO = inactive

Each molecule tested received a call. Report the one for Cc1ccc(CC(=O)O)cc1 . NO

Also Cc1onc(-c2c(F)cccc2Cl)c1C(=O)Oc1ccccc1 ? NO

Also Cc1ccc(-n2cccc2)c(NC(=S)Nc2ccc(Br)cc2OC(F)(F)F)c1 ? YES

Also Cc1cccc(C)c1NC1=NCCCS1 ? NO

Also CC[N+](CC)(CC)CCOc1cccc(OCC[N+](CC)(CC)CC)c1OCC[N+](CC)(CC)CC ? NO

Also Cc1ccc(NS(C)(=O)=O)cc1N=Cc1ccc(Cl)c(Cl)c1 ? NO

Also CCC(C)(C)C(=O)O[C@H]1C[C@@H](C)C=C2C=C[C@H](C)[C@H](CC[C@@H]3C[C@@H](O)CC(=O)O3)[C@H]21 ? NO

Also Cc1onc(-c2c(Cl)cccc2Cl)c1C(=O)OCC(F)(F)F ? NO

Also COc1ccc(C(C)=O)cc1CSC(=NS(=O)(=O)c1ccccc1)Nc1cccc(F)c1 ? NO

Also O=[N+]([O-])c1ccc(N2CCCN(C(=S)Nc3ccc(Cl)cc3Cl)CC2)nc1 ? YES

Also CC(=O)c1cnn(-c2ccccc2)c1C ? NO

Also CCCCN1CCCCC1C(=O)Nc1c(C)cccc1C (stereo unspecified) ? NO

Also NC[C@@H]1CC[C@@H](N)[C@@H](O[C@H]2[C@H](O)[C@@H](O[C@H]3O[C@H](CO)[C@@H](O)[C@H](N)[C@H]3O)[C@H](N)C[C@@H]2N)O1 ? NO

Also Clc1ccc(C2=CSC3=NCCCN23)cc1 ? NO

Also O=C1OC(c2ccc(O)cc2)(c2ccc(O)cc2)c2ccccc21 ? NO

Also CCC(C)c1cnc(CC(C)C)c(=O)n1O (stereo unspecified) ? NO

Also CO/N=C(\C(=O)N[C@@H]1C(=O)N2C(C(=O)O)=C(COC(C)=O)CS[C@H]12)c1csc(N)n1 ? NO

Also CCNC(=O)CC[C@H](N)C(=O)O ? NO

Also COC(=O)[C@@H]1OC(=O)[C@H]2O[C@@]23[C@@]1(C)CCC1[C@@]2(C)CCC(=O)C(C)(C)C2C[C@@H](OC(C)=O)[C@]13C (stereo partly specified) ? NO

Also Cc1ccc(Cl)c(Nc2ccccc2C(=O)O)c1Cl ? YES

Also O=[N+]([O-])c1ccc2c(c1)NC(c1ccc([N+](=O)[O-])s1)O2 (stereo unspecified) ? YES
